Entry source: patent US6201025A

Target: human neuropeptide Y5 receptor (Homo sapiens, UniProt Q15761)
Construct: expressed in transfected cells; cell membranes
Sequence (Q15761 1-445): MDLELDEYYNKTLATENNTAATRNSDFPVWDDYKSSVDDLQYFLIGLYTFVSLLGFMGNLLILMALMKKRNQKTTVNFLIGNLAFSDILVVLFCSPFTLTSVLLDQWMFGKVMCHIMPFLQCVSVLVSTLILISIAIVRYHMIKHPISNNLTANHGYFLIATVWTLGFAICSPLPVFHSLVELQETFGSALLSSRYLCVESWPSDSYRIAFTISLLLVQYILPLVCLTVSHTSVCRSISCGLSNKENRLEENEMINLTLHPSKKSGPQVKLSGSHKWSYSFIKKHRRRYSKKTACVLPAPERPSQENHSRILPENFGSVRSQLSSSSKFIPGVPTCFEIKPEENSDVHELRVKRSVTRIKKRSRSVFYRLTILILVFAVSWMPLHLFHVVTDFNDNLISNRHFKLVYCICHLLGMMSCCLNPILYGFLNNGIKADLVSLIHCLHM
Experiment: NPY5 HTS Centrifugation Assay: competition of 125I-PYY binding to membranes of NPY5-transfected HEK293 cells
Settings: 30 uM; 80 pM 125I-PYY; human NPY Y5 receptor; 1 hr room temperature; read-out: % Inhibition of 125I-PYY Binding @ 30 uM
Where a name gives a salt, the structure may show the parent alone.

| compound | system name | inhibition at 30 µM (%) |
| --- | --- | --- |
| COc1ccccc1CC(=O)N[C@@H]1CCc2ccccc2[C@@H]1Cc1ccccc1 (relative stereo) [Compound 23] | human neuropeptide Y5 receptor (Homo sapiens, UniProt Q15761) | 47 |
| COc1ccccc1CN[C@H]1CCc2ccccc2[C@H]1Cc1ccc2ccccc2c1 (racemic) [Compound 22, monohydrobromide] | human neuropeptide Y5 receptor (Homo sapiens, UniProt Q15761) | 96 |
| COc1ccc2c(c1)CC[C@@H](NCCc1ccc(OC)c(OC)c1)[C@H]2Cc1cccc2ccccc12 (relative stereo) [Compound 33] | human neuropeptide Y5 receptor (Homo sapiens, UniProt Q15761) | 73 |
